Values were extracted from the RNAGym collection of RNA variant scans (doi:10.7554/elife.80360).

B1: CPEB3 Ribozyme (parent)
chain: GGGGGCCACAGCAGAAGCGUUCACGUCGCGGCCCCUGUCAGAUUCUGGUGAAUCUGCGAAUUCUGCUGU

- Variants of: B1
- test-name: self-cleavage, relative activity (ratio to wild type); higher = more cleavage; co-transcriptional
Output 1 for self-cleavage not less than 0.7; output 0 otherwise.

Past entries and their recorded results:
[[record]]
mutation = "U44G G65C"
discrete_label = 0

[[record]]
mutation = "G3C A13U"
discrete_label = 0

[[record]]
mutation = "C34U A51U"
discrete_label = 1

[[record]]
mutation = "G1C U49C"
discrete_label = 0

[[record]]
mutation = "G31C A59U"
discrete_label = 0

[[record]]
mutation = "C39A G68U"
discrete_label = 1

[[record]]
mutation = "C22A U69A"
discrete_label = 0

[[record]]
mutation = "G2C G30U"
discrete_label = 0

[[record]]
mutation = "G19A G50A"
discrete_label = 0

[[record]]
mutation = "G48U A51U"
discrete_label = 1


Shifting focus to the variant that follows.
Q: In plain terms: is recorded self-cleavage at least 0.7 for A13C C32A ?
A: 0
